Target Entity: VEGF165 (soluble) (human, UniProt P15692-4 27-191)
Sequence (P15692 other isoform, or with tags, fused parts or gaps): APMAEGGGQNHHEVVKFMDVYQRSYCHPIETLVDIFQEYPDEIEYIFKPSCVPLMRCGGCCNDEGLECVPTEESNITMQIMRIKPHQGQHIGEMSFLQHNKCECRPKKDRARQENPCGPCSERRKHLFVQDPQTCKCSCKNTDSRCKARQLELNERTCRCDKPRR
Assay Explanation: F-EMSA; 1 mM Mg2+; 10 mM HEPES pH 7.9, 125 mM NaCl, 25 mM KCl, 1 mM MgCl2; F-EMSA at room temperature for 2 h, 5% PAGE at 4 C; flow cytometry in the same buffer
Assay Setup: protein: recombinant; chain copies: 2; label: 5' fluorescein (F-EMSA); 5' biotin (flow); two predicted stem-loops
pKd: −log10 of the molar value.

Binder	pKd
TCTAGCCCACTGCATAGAGGTAGCCACGTATGTTCGTGGCTACCGGTG (structured_DNA) [hVap1_Stem]	8.25
